Provide the reported logP of each item.
EXPERIMENTAL_DETAILS: Measurement of logP values by HPLC on reversed phase columns (EEC directive 79/831 Annex V.A8)
Type: physicochemical
CONDITION_LABEL: pH 2.7

Previously resolved entries follow.
> print(dat)
                                   molecule  reported.value
1  CCN(C)C(=S)c1cc(-c2ncnc(Nc3cccc(F)c3)n2)ccn1 [Example B10]            2.94
2  CC(C)CN(C)C(=O)c1cc(-c2ncnc(Nc3cccc(C(F)(F)F)c3)n2)ccn1 [Example B362]            3.58
3  COc1ccc(Nc2ncnc(-c3ccnc(C(=O)N(C)CC4CC4)c3)n2)cn1 [Example C6]             2.2
4  O=C(c1cc(-c2ccnc(Nc3ccnc(Cl)c3)n2)ccn1)N1CCCCC1 [Example A5]            2.23
5  O=C(c1cc(Nc2nccc(-c3ccnc(C(=O)N4CC=CCC4)c3)n2)ccn1)N1CC=CCC1 [Example A3]             1.6

Okay, here is my list. What is logP for each of these?
1. CN(C)C(=S)c1cc(-c2ncnc(Nc3ccc(F)c(C(F)F)c3)n2)ccn1 [Example B332]
2. CN(CCC#N)C(=S)c1cc(-c2ncnc(Nc3ccc(F)c(C(F)F)c3)n2)ccn1 [Example B340]
3. CCN(CC)C(=O)c1cc(-c2ncnc(Nc3cccc(OC)c3)n2)ccn1 [Example B273]
4. CCC(C)NC(=O)c1cc(-c2ncnc(Nc3cccc(Cl)c3)n2)ccn1 (stereo not drawn) [Example B94]
5. CCC(=NOCC(F)(F)F)c1cc(-c2ncnc(Nc3cccc(Cl)c3)n2)ccn1 (mixture of isomers) [B58]
6. CCN(C)C(=S)c1cc(-c2ncnc(Nc3cccc(OC(F)F)c3)n2)ccn1 [B424]
7. NC(=O)c1cc(-c2ncnc(Nc3cccc(F)c3)n2)ccn1 [B324]
8. O=C(c1cc(-c2ncnc(Nc3cccc(Cl)c3)n2)ccn1)N1CCSCC1 [B176]

Ans:
1: 2.73; 2: 2.82; 3: 2.59; 4: 4.04; 5: 5.39; 6: 3.06; 7: 2.09; 8: 2.98

Hi there! I need logP for each item below, if you can.
1. CCN(C)C(=O)c1cc(-c2ncnc(Nc3cccc(OC(F)(F)C(F)F)c3)n2)ccn1 [Example B260]
2. CCNC(=O)c1cc(-c2ncnc(Nc3ccc(C)c(Cl)c3)n2)ccn1 [B231]
3. CCCN(C)C(=O)c1cc(-c2ncnc(Nc3cccc(C(F)(F)F)c3)n2)ccn1 [Example B356]

Ans:
1: 2.92; 2: 3.55; 3: 3.25

Please go through the list and note logP for each molecule.
1. CC(C)CN(C)C(=O)c1cc(-c2ncnc(Nc3ccc(Cl)c(C(F)F)c3)n2)ccn1 [Example B388]
2. COc1cccc(Nc2ncnc(-c3ccnc(C(=O)N(C)CCC#N)c3)n2)c1 [Example B272]

Ans:
[3.58, 2.11]

###

EXPERIMENTAL_DETAILS: Measurement of logP values by HPLC on reversed phase columns (EEC directive 79/831 Annex V.A8)
Assay type: physicochemical
CONDITION_LABEL: pH 2.7
Please go through the items and note down their logP.
Answers are plain numbers.

These solved cases illustrate the format of a correct answer.
> print(dat)
                                   molecule  reported.value
1  O=C(c1cc(Nc2nccc(-c3ccnc(C(=O)N4CCCC4)c3)n2)ccn1)N1CCCC1            1.37
2  CC1CC(C)CN(C(=O)c2cc(-c3ncnc(Nc4cccc(Cl)c4)n3)ccn2)C1 (stereo not drawn)            3.96
3  CCN(C)C(=O)c1cc(-c2ncnc(Nc3ccccc3)n2)ccn1             2.2

Provide the reported logP of each entry below, same order.
1. O=C(c1cc(-c2ncnc(Nc3cccc(Cl)c3)n2)ccn1)N1CCC(O)C1 (stereo not drawn)
2. CCCCN(C)C(=O)c1cc(-c2ncnc(Nc3cccc(Cl)c3)n2)ccn1
3. CCC(CC)NC(=O)c1cc(-c2ncnc(Nc3cccc(Cl)c3)n2)ccn1
4. CCON(C)C(=O)c1cc(-c2ncnc(Nc3cccc(C(F)F)c3)n2)ccn1
5. CCCN(C)C(=O)c1cc(-c2ncnc(Nc3cccc(OC)c3)n2)ccn1
6. CCON(CC)C(=O)c1cc(-c2ncnc(Nc3cccc(C(F)F)c3)n2)ccn1

Ans:
1. 2.07
2. 3.48
3. 4.22
4. 2.57
5. 2.61
6. 2.88
